System: murine TTC39C mRNA
Assay: Dose-dependent antisense inhibition of murine TTC39C in mouse primary hepatocytes
Type: cell-based
Settings: 1000.0 nM, electroporation, ~16 h
Oligonucleotides are written 5' to 3', each unit as a sugar letter and its base; * is a phosphorothioate linkage, no mark a phosphodiester; rarer units and linkages stand in square brackets, end groups in braces. Plain capitals give the bases only. e = 2'-O-(2-methoxyethyl) (MOE); [5mC] = 5-methylcytosine; d = 2'-deoxy (DNA)
Short version: percent inhibition of TTC39C mRNA at least 60% is Condition met, less is Condition not met.

[
  {
    "substance": "ISIS 474610: 5-10-5 MOE gapmer antisense oligonucleotide targeting murine TTC39C (antisense eT*eT*eA*eA*eG*dA*dA*d[5mC]*dA*dA*dG*dT*dT*dG*dT*eG*e[5mC]*e[5mC]*e[5mC]*e[5mC])",
    "tgt": "murine TTC39C mRNA",
    "assigned label": "Condition not met"
  },
  {
    "substance": "ISIS 474601: 5-10-5 MOE gapmer antisense oligonucleotide targeting murine TTC39C (antisense eG*eG*e[5mC]*e[5mC]*eA*dT*dA*dT*d[5mC]*d[5mC]*dA*dA*dA*dG*d[5mC]*eT*e[5mC]*eA*e[5mC]*eA)",
    "tgt": "murine TTC39C mRNA",
    "assigned label": "Condition not met"
  },
  {
    "substance": "ISIS 474598: 5-10-5 MOE gapmer antisense oligonucleotide targeting murine TTC39C (antisense e[5mC]*e[5mC]*e[5mC]*eA*e[5mC]*d[5mC]*dT*dT*dT*dT*dA*dT*dG*dT*dA*eG*eG*e[5mC]*e[5mC]*eG)",
    "tgt": "murine TTC39C mRNA",
    "assigned label": "Condition not met"
  },
  {
    "substance": "ISIS 474592: 5-10-5 MOE gapmer antisense oligonucleotide targeting murine TTC39C (antisense eG*eA*eA*eG*e[5mC]*dA*dT*dA*dT*dT*dG*dA*dT*dG*d[5mC]*e[5mC]*eA*eG*e[5mC]*e[5mC])",
    "tgt": "murine TTC39C mRNA",
    "assigned label": "Condition not met"
  },
  {
    "substance": "ISIS 474607: 5-10-5 MOE gapmer antisense oligonucleotide targeting murine TTC39C (antisense eT*e[5mC]*eA*eA*eT*d[5mC]*dA*dT*dG*d[5mC]*dT*dG*d[5mC]*dA*d[5mC]*e[5mC]*eA*eG*e[5mC]*e[5mC])",
    "tgt": "murine TTC39C mRNA",
    "assigned label": "Condition met"
  }
]

Now consider a different substance.
QUERY: Quick check, percent inhibition of TTC39C mRNA >= 60%? ISIS 474518: 5-10-5 MOE gapmer antisense oligonucleotide targeting murine TTC39C (antisense eG*eT*eA*eG*eT*d[5mC]*dT*dT*dT*dA*dA*dG*dT*d[5mC]*dA*eT*e[5mC]*eG*e[5mC]*eA)
RESULT: Condition met

---

Consider the following sequences; for each one, report its % inhibition of murine TTC39A mRNA.
Tested on: murine TTC39A mRNA
Test: Antisense inhibition of mouse TTC39A in b.END cells, single dose
Type: cell-based
Conditions: 70 nM, cytofectin, ~24 h, vs untreated control
Oligonucleotides are written 5' to 3', each unit as a sugar letter and its base; * is a phosphorothioate linkage, no mark a phosphodiester; rarer units and linkages stand in square brackets, end groups in braces. Plain capitals give the bases only. e = 2'-O-(2-methoxyethyl) (MOE); [5mC] = 5-methylcytosine; d = 2'-deoxy (DNA)
Give bare numbers, in %.

Consider the following illustrative entries.
[
  {
    "sequence string": "TGCACTGGTCCAGGGCCTCA (eT*eG*e[5mC]*eA*e[5mC]*dT*dG*dG*dT*d[5mC]*d[5mC]*dA*dG*dG*dG*e[5mC]*e[5mC]*eT*e[5mC]*eA; antisense) [ISIS 474351]",
    "test readout": "% inhibition of murine TTC39A mRNA",
    "recorded result": 94
  },
  {
    "sequence string": "CGCCTGGACTTCCGGATAGC (e[5mC]*eG*e[5mC]*e[5mC]*eT*dG*dG*dA*d[5mC]*dT*dT*d[5mC]*d[5mC]*dG*dG*eA*eT*eA*eG*e[5mC]; antisense) [ISIS 474369]",
    "test readout": "% inhibition of murine TTC39A mRNA",
    "recorded result": 96
  },
  {
    "sequence string": "TCGGTGCCTCTGACACAGCG (eT*e[5mC]*eG*eG*eT*dG*d[5mC]*d[5mC]*dT*d[5mC]*dT*dG*dA*d[5mC]*dA*e[5mC]*eA*eG*e[5mC]*eG; antisense) [ISIS 474474]",
    "test readout": "% inhibition of murine TTC39A mRNA",
    "recorded result": 97
  },
  {
    "sequence string": "GCCTCAGAATCCTGGTGGGA (eG*e[5mC]*e[5mC]*eT*e[5mC]*dA*dG*dA*dA*dT*d[5mC]*d[5mC]*dT*dG*dG*eT*eG*eG*eG*eA; antisense) [ISIS 474437]",
    "test readout": "% inhibition of murine TTC39A mRNA",
    "recorded result": 94
  }
]

Now consider a different sequence.
QUERY: What value of % inhibition of murine TTC39A mRNA has been reported for the following sequence? TCCATGGAGTAGTTCTTGTA (eT*e[5mC]*e[5mC]*eA*eT*dG*dG*dA*dG*dT*dA*dG*dT*dT*d[5mC]*eT*eT*eG*eT*eA; antisense) [ISIS 474452]
RESULT: 92

---

System: murine TTC39C mRNA
Assay: Dose-dependent antisense inhibition of murine TTC39C in mouse primary hepatocytes
Assay type: cell-based
Conditions: 1000.0 nM, electroporation, ~16 h
Oligonucleotides are written 5' to 3', each unit as a sugar letter and its base; * is a phosphorothioate linkage, no mark a phosphodiester; rarer units and linkages stand in square brackets, end groups in braces. Plain capitals give the bases only. e = 2'-O-(2-methoxyethyl) (MOE); [5mC] = 5-methylcytosine; d = 2'-deoxy (DNA)
Consider the following substances; for each one, report its percent inhibition of TTC39C mRNA.

[
  {
    "substance": "ISIS 474589: 5-10-5 MOE gapmer antisense oligonucleotide targeting murine TTC39C (antisense eT*e[5mC]*e[5mC]*eG*eA*dA*dA*dT*d[5mC]*dG*d[5mC]*dT*d[5mC]*dA*dG*e[5mC]*e[5mC]*eT*eG*e[5mC])",
    "percent inhibition of TTC39C mRNA": "96%"
  },
  {
    "substance": "ISIS 474596: 5-10-5 MOE gapmer antisense oligonucleotide targeting murine TTC39C (antisense e[5mC]*eG*eA*eT*eT*dA*d[5mC]*dA*d[5mC]*d[5mC]*dA*dG*d[5mC]*d[5mC]*dT*e[5mC]*eT*eT*e[5mC]*eA)",
    "percent inhibition of TTC39C mRNA": "65%"
  },
  {
    "substance": "ISIS 474662: 5-10-5 MOE gapmer antisense oligonucleotide targeting murine TTC39C (antisense eG*eG*eA*eT*eT*dT*d[5mC]*d[5mC]*dG*dG*dG*d[5mC]*dA*dT*d[5mC]*eA*eA*e[5mC]*e[5mC]*eT)",
    "percent inhibition of TTC39C mRNA": "35%"
  }
]

Now consider a different substance.
QUERY: What value of percent inhibition of TTC39C mRNA has been reported for the following substance? ISIS 474609: 5-10-5 MOE gapmer antisense oligonucleotide targeting murine TTC39C (antisense e[5mC]*eG*eT*eA*eG*dT*dA*dG*d[5mC]*dA*d[5mC]*dT*dG*dG*dG*eA*e[5mC]*e[5mC]*eA*e[5mC])
RESULT: 56%

---

Consider the following substances; for each one, report its % inhibition.
System: murine TTC39C mRNA
Test: Antisense inhibition of mouse TTC39C in mouse primary hepatocytes, single dose
Format: cell-based
Details: 8,000 nM antisense oligonucleotide, electroporation, approximately 24 hours, TTC39C mRNA by real-time PCR (RTS3266), relative to untreated control cells
Oligonucleotides are written 5' to 3', each unit as a sugar letter and its base; * is a phosphorothioate linkage, no mark a phosphodiester; rarer units and linkages stand in square brackets, end groups in braces. Plain capitals give the bases only. e = 2'-O-(2-methoxyethyl) (MOE); [5mC] = 5-methylcytosine; d = 2'-deoxy (DNA)
Numbers only, in %.

Consider the following illustrative entries.
[
  {
    "substance": "ISIS 474596: 5-10-5 MOE gapmer antisense oligonucleotide targeting murine TTC39C (antisense e[5mC]*eG*eA*eT*eT*dA*d[5mC]*dA*d[5mC]*d[5mC]*dA*dG*d[5mC]*d[5mC]*dT*e[5mC]*eT*eT*e[5mC]*eA)",
    "% inhibition [%]": 93
  },
  {
    "substance": "ISIS 474517: 5-10-5 MOE gapmer antisense oligonucleotide targeting murine TTC39C (antisense e[5mC]*e[5mC]*eT*e[5mC]*eG*dA*dA*dT*dG*dT*d[5mC]*dA*dT*d[5mC]*dA*eT*eG*eG*e[5mC]*eG)",
    "% inhibition [%]": 98
  },
  {
    "substance": "ISIS 474515: 5-10-5 MOE gapmer antisense oligonucleotide targeting murine TTC39C (antisense eT*e[5mC]*e[5mC]*e[5mC]*eT*dG*dA*dA*dG*d[5mC]*d[5mC]*dG*dT*dT*dG*eT*eT*eG*eA*eG)",
    "% inhibition [%]": 96
  }
]

Now consider a different substance.
QUERY: What value of % inhibition has been reported for the following substance? ISIS 474521: 5-10-5 MOE gapmer antisense oligonucleotide targeting murine TTC39C (antisense eG*eG*e[5mC]*eT*eT*dT*d[5mC]*d[5mC]*dT*dA*dA*dG*dG*dA*dT*e[5mC]*e[5mC]*eA*e[5mC]*e[5mC])
RESULT: 97
